# TESTED TARGET: Dihydrodipicolinate synthase (Streptomyces coelicolor (strain ATCC BAA-471 / A3(2) / M145))
# Sequence (Q93RY0 whole entry): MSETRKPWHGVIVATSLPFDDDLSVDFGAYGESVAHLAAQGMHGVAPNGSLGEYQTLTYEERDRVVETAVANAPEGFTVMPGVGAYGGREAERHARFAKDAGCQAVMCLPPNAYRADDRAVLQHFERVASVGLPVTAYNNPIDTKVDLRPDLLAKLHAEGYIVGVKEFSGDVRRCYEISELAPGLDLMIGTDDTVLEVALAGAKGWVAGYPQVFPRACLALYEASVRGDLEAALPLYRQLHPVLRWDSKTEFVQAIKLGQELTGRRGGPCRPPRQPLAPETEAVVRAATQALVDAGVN
# TEST: In vitro inhibition of dihydrodipicolinic acid synthase.
READOUT LABEL: pIC50
Bear in mind: pIC50 is minus log10 of a mol/L concentration; give just that figure.

Before answering, review these 4 worked examples.
>  <MOLECULE>
c1cc(-c2nnn[nH]2)nc(-c2nnn[nH]2)c1

>  <pIC50>
3.60

$$$$
>  <MOLECULE>
O=C(O)c1ccccn1

>  <pIC50>
3.00

$$$$
>  <MOLECULE>
O=NN1[C@@H](C(=O)O)CCC[C@H]1C(=O)O

>  <pIC50>
2.64

$$$$
>  <MOLECULE>
O=NN1CCCC1C(=O)O (stereo unspecified)

>  <pIC50>
2.12

$$$$

stdin: Endpoint output: pIC50 of `N#Cc1cccc(C#N)n1` . Value?
stdout: 3.52

stdin: GET /values?readout=pIC50&item= `COC(=O)c1cccc(C(=O)OC)n1`
stdout: 3.15
